Dear all, I have gathered published IC50 values for Glycogen synthase kinase-3 beta (Homo sapiens, UniProt P49841); the list follows.

CCOC(=O)N1CCn2c(nc(-c3ccncn3)cc2=O)C(NC(=O)c2ccc3ncccc3n2)C1 (racemic) : 0.073 µM

[Q] What value of IC50 has been reported for the following compound? "CCOC(=O)c1c(-c2ccc(C#N)cc2)nc(NCCNc2ccc([N+](=O)[O-])cn2)nc1-c1ccc([N+](=O)[O-])cc1"
[A] ≤ 1 µM

[Q] What value of IC50 has been reported for the following compound? "Cc1sccc1C(=O)Nc1c[nH]nc1C(=O)Nc1ccc(F)cc1"
[A] < 10 µM

[Q] What value of IC50 has been reported for the following compound? CC1CN(c2ccncc2NC(=O)c2ccnn3cc(-c4ccccc4)nc23)CCO1 (racemic)
[A] 0.00075 µM

[Q] What value of IC50 has been reported for the following compound? "CCS(=O)(=O)Nc1ccc(F)c(C(=O)c2c[nH]c3ncc(-c4cccnc4)cc23)c1F"
[A] ≤ 10 µM

[Q] What value of IC50 has been reported for the following compound? "COc1cccc(-n2ncc3c(N/N=C/c4ccc(Cl)nc4)ncnc32)n1"
[A] < 0.1 µM

[Q] What value of IC50 has been reported for the following compound? "C/C(=N\c1cnc(NCCNc2ccc([N+](=O)[O-])c(N)n2)nc1-c1ccc(Cl)cc1Cl)N1CCOCC1"
[A] ≤ 1 µM

[Q] What value of IC50 has been reported for the following compound? "CCOC(=O)c1c(-c2ccc(C(N)=O)cc2)nc(NCCNc2ccc([N+](=O)[O-])cn2)nc1-c1ccc([N+](=O)[O-])cc1"
[A] ≤ 1 µM

[Q] What value of IC50 has been reported for the following compound? "CCOC(=O)c1cnc(NCCNc2ccc([N+](=O)[O-])cn2)nc1-c1cnc2ccccc2c1"
[A] ≤ 10 µM

[Q] What value of IC50 has been reported for the following compound? "Cc1ccccc1C(=O)c1c[nH]c2nccc(-c3ccc(C(N)=O)cc3)c12"
[A] ≤ 10 µM

[Q] What value of IC50 has been reported for the following compound? "Nc1ccc(F)c(C(=O)c2c[nH]c3ncc(-c4cccnc4)cc23)c1F"
[A] ≤ 10 µM

[Q] What value of IC50 has been reported for the following compound? "NS(=O)(=O)c1ccc(-c2ccnc(NCCNc3ccc([N+](=O)[O-])cn3)n2)cc1"
[A] ≤ 10 µM

[Q] What value of IC50 has been reported for the following compound? "Cc1nc(C)c(-c2ccnc(NCCNc3ccc([N+](=O)[O-])cn3)n2)s1"
[A] ≤ 10 µM

[Q] What value of IC50 has been reported for the following compound? CC(C)(C)C1CCC(NC(=O)c2n[nH]cc2NC(=O)c2ccc(OC(F)F)cc2)CC1 (centres unmarked)
[A] < 10 µM
